Reported inhibition values for a set of compounds
Target: Methyl-CpG-binding domain protein 4 (Homo sapiens) (UniProt O95243);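 note: MBD4 activity read as fluorescence at 594 nm from cleavage and release of a quenched duplex DNA oligonucleotide, with APE1 coupled to incise the strand and raise turnover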
Sequence (O95243 whole entry, the tested form may be a part): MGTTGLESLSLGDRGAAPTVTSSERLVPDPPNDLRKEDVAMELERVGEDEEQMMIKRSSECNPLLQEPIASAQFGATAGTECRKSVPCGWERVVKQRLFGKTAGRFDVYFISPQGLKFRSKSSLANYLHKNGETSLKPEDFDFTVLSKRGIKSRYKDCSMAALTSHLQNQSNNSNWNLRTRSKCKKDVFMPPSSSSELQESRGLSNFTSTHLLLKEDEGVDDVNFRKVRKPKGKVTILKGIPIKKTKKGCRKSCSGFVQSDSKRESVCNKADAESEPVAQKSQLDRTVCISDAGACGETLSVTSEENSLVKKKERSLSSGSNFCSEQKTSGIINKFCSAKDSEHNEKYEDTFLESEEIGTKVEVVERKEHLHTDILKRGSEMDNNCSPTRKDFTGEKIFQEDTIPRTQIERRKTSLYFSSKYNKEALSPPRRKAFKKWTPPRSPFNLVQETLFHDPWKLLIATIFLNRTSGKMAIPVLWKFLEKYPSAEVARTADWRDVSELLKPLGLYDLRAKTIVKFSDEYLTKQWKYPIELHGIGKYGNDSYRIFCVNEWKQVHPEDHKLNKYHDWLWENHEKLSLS
Details: Compound Concentration 10.0 uM, Hit No
Description: Inhibition of MBD4 by quantifying inhibition of MBD4-mediated cleavage and dissociation of quenched duplex DNA oligonucleotides, measured as fluorescence at 594 nm. To generate a functional strand incision and increase turn-over this assay is coupled to APE1.
Measure: inhibition (%)

• O=C(Nc1nc2cccc(-c3ccc(CN4CCS(=O)(=O)CC4)cc3)n2n1)C1CC1 = -0.894
• C[C@@H](CN1CCC(Cc2ccccc2)CC1)[C@@H](O)c1ccc(O)cc1 = -0.918
• CO[C@H]1/C=C/O[C@@]2(C)Oc3c(C)c(O)c4c(O)c(c(/C=N/N5CCN(C)CC5)c(O)c4c3C2=O)NC(=O)/C(C)=C\C=C\[C@H](C)[C@H](O)[C@@H](C)[C@@H](O)[C@@H](C)[C@H](OC(C)=O)[C@@H]1C = 74.6
• C[C@H](CCOc1cccc(CC(=O)O)c1)N(Cc1cccc(C(F)(F)F)c1Cl)CC(c1ccccc1)c1ccccc1 = 61.9
• O=C(Nc1ccc(S(=O)(=O)Nc2nccs2)cc1)C(c1ccccc1)c1ccccc1 = 66
• COc1cc2c(CCNC(C)=O)c[nH]c2cc1Cl = 5.14
• COc1cccc(CNC(=O)c2nc3scc(CN(C)Cc4ccccc4)c3c(=O)[nH]2)c1 = 59.5
• C[C@@H]1CCc2ncc(F)cc2[C@H]2CCCN2c2ccn3ncc(c3n2)C(=O)N1 = 0.277
• O=C(NCCNCC(O)COc1ccc(O)cc1)N1CCOCC1 (centres undefined) = 9.4
• NCCCCN(Cc1nc2ccccc2[nH]1)[C@H]1CCCc2cccnc21 = -9.01
• CCn1cc(-c2ccnc3[nH]c(-c4cccc(CN(C)C)c4)cc23)c(-c2ccc(NC(=O)N(C)C)cc2)n1 = 22.5
• Cc1cc(OC2CCS(=O)(=O)CC2)cc(C)c1-c1cccc(COc2ccc(CCC(=O)O)c(F)c2)c1 = 58.2
• CC(=O)Nc1c(F)cc(C(=O)N[C@H]2CC[C@H](O)CC2)cc1O[C@@H](C)c1ccccc1 = 61.8
• Cc1ccccc1Oc1cc(-n2c(=O)cc(C(F)(F)F)[nH]c2=O)c2ccccc2c1Cl = 68.2
• CCOC(=O)N1CCC(CN(Cc2ccc(Cl)cc2)Cc2ccc([N+](=O)[O-])s2)C1 (centres undefined) = 55.4
• CNC(=O)c1cc(C(=O)NC2CC2)cn(Cc2ccccc2)c1=O = 59.4
• CC(C)C[C@H](NC(=O)N1CCCCCC1)C(=O)N[C@H](Cc1cn(C)c2ccccc12)C(=O)N[C@H](Cc1ccccn1)C(=O)O = -1.3
• CNC1(C)C2CCC(C2)C1(C)C (centres undefined) = -0.892
• CC(C)c1c(NC(=O)Nc2ccc(Cl)cc2)c(=O)n(-c2ccccc2)n1C = 31.2
